assay: chemical genetic growth profiling, strain panel (AID 1159580);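 note: tested at 20 µM; growth read once vehicle control cultures reached saturation at 30 °C; 1 = growth at the plate median or of vehicle wells; lower values mean less growth of the strain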; details: S. cerevisiae deletion strains, growth OD, locus YAR019C, strain CDC15, hits give low values
The campaign covered roughly 5,500 compounds. About 2,000 (36%) were called active. Roughly 18% stayed inconclusive and do not appear here. The list shows a part of the results.
measure name: normalized growth
Returns: the value as a bare number; no unit string appended.

[[record]]
smiles_record = "CC(=O)c1ccc(Cl)c(N=Cc2cc(Cl)cc(Cl)c2O)c1"
measurement = 0.94

[[record]]
smiles_record = "Cc1ccc2nc(-c3ccc4c(c3)OCCO4)cn2c1"
measurement = 0.981

[[record]]
smiles_record = "Cc1c(C)c(C)c(C(=O)c2ccc(N=Cc3cc(Cl)cc(Cl)c3O)cc2)c(C)c1C"
measurement = 0.929

[[record]]
smiles_record = "Cc1onc(-c2c(Cl)cccc2Cl)c1C(=O)O/N=C(/N)Cc1ccc(C(C)(C)C)cc1"
measurement = 0.991

[[record]]
smiles_record = "Clc1ccc(CN2CCN(c3cccc4[nH]ccc34)CC2)cc1Cl"
measurement = 0.997


Now take the following compound into account.
Q) Could you tell me which normalized growth is on file for `CCOC(=O)c1ccc(Cl)c(N=Cc2cc(Cl)cc(Cl)c2O)c1` ?
A) 0.955

###

experiment: chemical genetic growth profiling, strain panel (AID 1159580);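 note: tested at 20 µM; growth read once vehicle control cultures reached saturation at 30 °C; 1 = growth at the plate median or of vehicle wells; lower values mean less growth of the strain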; settings: S. cerevisiae deletion strains, growth OD, locus YOL147C, strain pex11, hits give low values
The campaign covered roughly 5,500 compounds. About 2,000 (36%) were called active. Inconclusive results (about 18%) are left out. The list shows a part of the results.
In this section, each of the compounds is paired with its reported normalized growth.
Returns: the value as a bare number; no unit string appended.

// solved cases for normalized growth follow
[[record]]
compound = "CC1(C)CC2C1CC[C@]1(CBr)CCC3C(CC(=O)O)C(=O)O[C@@]32C1 (some centres undefined)"
measurement = 0.99

[[record]]
compound = "CN(C)[C@@H]1C(=O)C(C(N)=O)=C(O)[C@@]2(O)C(=O)C3=C(O)c4c(O)ccc(Cl)c4[C@@H](O)[C@H]3C[C@@H]12"
measurement = 0.983

[[record]]
compound = "CC(C)=CC1C(C(=O)O)C1(C)C (centres undefined)"
measurement = 0.989


Q) Could you tell me which normalized growth is on file for CC12CCC3C(CC3(C)C)C(C)(CCC1=O)O2 (centres undefined) ?
A) 0.996

Q) Could you tell me which normalized growth is on file for `CCOC(=O)NNc1nncc2ccccc12` ?
A) 0.98

Q) Could you tell me which normalized growth is on file for `CNNC` ?
A) 0.995

Q) Could you tell me which normalized growth is on file for `C=C1c2cccc(O)c2C(O)=C2C(=O)[C@]3(O)C(O)=C(C(N)=O)C(=O)[C@@H](N(C)C)[C@@H]3[C@@H](O)[C@H]12` ?
A) 0.995

Q) Could you tell me which normalized growth is on file for `C=C1c2c(Cl)ccc(O)c2C(O)=C2C(=O)[C@]3(O)C(O)=C(C(N)=O)C(=O)[C@@H](N(C)C)[C@@H]3[C@@H](O)[C@H]12` ?
A) 0.975

Q) Could you tell me which normalized growth is on file for `CN(C)[C@@H]1C(=O)C(C(N)=O)=C(O)[C@@]2(O)C(=O)C3=C(O)c4c(O)cccc4[C@@](C)(O)[C@H]3[C@H](O)[C@@H]12` ?
A) 0.991
